Data origin: patent US20100003332A1

# TEST DETAILS: Particle size of cilostazol (lactose/SLS ratio) after redispersion of slurry or dried powder in distilled water, laser scattering particle size analyzer
# Format: physicochemical
# STATED CONDITIONS: drying powder redispersed; Lactose 90 g, SLS 360 g
QUANTITY: Particle size range D10 (nm)
Report only the number, with the unit nm understood.

Query `O=C1CCc2cc(OCCCCc3nnnn3C3CCCCC3)ccc2N1` yields Particle size range D10 of 230

###

# TEST DETAILS: Particle size of cilostazol (lactose/SLS ratio) after redispersion of slurry or dried powder in distilled water, laser scattering particle size analyzer
# Assay type: physicochemical
# STATED CONDITIONS: drying powder redispersed; Lactose 225 g, SLS 225 g
QUANTITY: Particle size range D10 (nm)
Respond with the bare value in nm.

Please fill in: Particle size range D10 reported for `O=C1CCc2cc(OCCCCc3nnnn3C3CCCCC3)ccc2N1` = 240

###

# TEST DETAILS: Particle size of cilostazol (lactose/SLS ratio) after redispersion of slurry or dried powder in distilled water, laser scattering particle size analyzer
# Assay type: physicochemical
# STATED CONDITIONS: slurry mixture redispersed after wet grinding; Lactose 225 g, SLS 225 g
QUANTITY: Particle size range D50 (nm)
Respond with the bare value in nm.

Record O=C1CCc2cc(OCCCCc3nnnn3C3CCCCC3)ccc2N1 [Cilostazol, cilostazol] , field Particle size range D50: 330

###

# TEST DETAILS: Particle size of cilostazol (lactose/SLS ratio) after redispersion of slurry or dried powder in distilled water, laser scattering particle size analyzer
# Format: physicochemical
# STATED CONDITIONS: slurry mixture redispersed after wet grinding; Lactose 360 g, SLS 90 g
QUANTITY: Average particle size (nm)
Your answer should be a plain number; it is taken to be in nm.

Data point: O=C1CCc2cc(OCCCCc3nnnn3C3CCCCC3)ccc2N1 [Cilostazol, cilostazol] ; Average particle size = 190

###

# TEST DETAILS: Particle size of cilostazol (lactose/SLS ratio) after redispersion of slurry or dried powder in distilled water, laser scattering particle size analyzer
# Format: physicochemical
# STATED CONDITIONS: slurry mixture redispersed after wet grinding; Lactose 360 g, SLS 90 g
QUANTITY: Particle size range D10 (nm)
Could you give me the number in nm? Just the number is fine.

Please fill in: Particle size range D10 reported for `O=C1CCc2cc(OCCCCc3nnnn3C3CCCCC3)ccc2N1` = 140

###

# TEST DETAILS: Particle size of cilostazol (lactose/SLS ratio) after redispersion of slurry or dried powder in distilled water, laser scattering particle size analyzer
# Format: physicochemical
# STATED CONDITIONS: slurry mixture redispersed after wet grinding; Lactose 225 g, SLS 225 g
QUANTITY: Particle size range D90
Param answer (str): number followed by unit.

Per the records, this molecule ( `O=C1CCc2cc(OCCCCc3nnnn3C3CCCCC3)ccc2N1` ) has Particle size range D90 equal to 470 nm

###

# TEST DETAILS: Particle size of cilostazol (lactose/SLS ratio) after redispersion of slurry or dried powder in distilled water, laser scattering particle size analyzer
# Format: physicochemical
# STATED CONDITIONS: slurry mixture redispersed after wet grinding; Lactose 90 g, SLS 360 g
QUANTITY: Particle size range D50 (nm)
Give just the numeric value; nm need not be written.

Please fill in: Particle size range D50 reported for `O=C1CCc2cc(OCCCCc3nnnn3C3CCCCC3)ccc2N1` = 340

###

# TEST DETAILS: Particle size of cilostazol (lactose/SLS ratio) after redispersion of slurry or dried powder in distilled water, laser scattering particle size analyzer
# Type: physicochemical
# STATED CONDITIONS: slurry mixture redispersed after wet grinding; Lactose 90 g, SLS 360 g
# Procedure: 0.45 g of cilostazol (Dongwoo Co., Ltd.) and 0.15 g of hydroxypropyl cellulose were added to 5.1 ml of the saturated aqueous solution of lactose. […] The slurry mixture thus obtained was high-pressure filtered (pressure: 640 mmHg) using a sound pressure and freeze dried for 1 day to obtain powders.
QUANTITY: Average particle size
Give your result as the value with the unit written after it.

Short answer for `O=C1CCc2cc(OCCCCc3nnnn3C3CCCCC3)ccc2N1` : Average particle size was 340 nm

###

# TEST DETAILS: Particle size of cilostazol (lactose/SLS ratio) after redispersion of slurry or dried powder in distilled water, laser scattering particle size analyzer
# Format: physicochemical
# STATED CONDITIONS: drying powder redispersed; Lactose 225 g, SLS 225 g
QUANTITY: Average particle size (nm)
Expressed in nm, but write only the number.

Consider O=C1CCc2cc(OCCCCc3nnnn3C3CCCCC3)ccc2N1 [Cilostazol, cilostazol] . Its measured Average particle size is 360

###

# TEST DETAILS: Bioavailability test: blood drug concentration after oral administration of suspensions to rats
# Type: in vivo
# STATED CONDITIONS: rat, suspension in distilled water, male rats fasted for 12 hours, read-out: Cmax (maximum blood concentration)
QUANTITY: Cmax (ng/mL)
Lab book: enter the figure in ng/mL, no units written.

Notebook: `O=C1CCc2cc(OCCCCc3nnnn3C3CCCCC3)ccc2N1` , Cmax read as 150

###

# TEST DETAILS: Particle size of cilostazol (lactose/SLS ratio) after redispersion of slurry or dried powder in distilled water, laser scattering particle size analyzer
# Type: physicochemical
# STATED CONDITIONS: slurry mixture redispersed after wet grinding; Lactose 360 g, SLS 90 g
QUANTITY: Particle size range D50 (nm)
Kindly answer with a numeric value in nm, unit omitted.

The recorded Particle size range D50 for entry `O=C1CCc2cc(OCCCCc3nnnn3C3CCCCC3)ccc2N1` equals 180

###

# TEST DETAILS: Particle size of cilostazol (lactose/SLS ratio) after redispersion of slurry or dried powder in distilled water, laser scattering particle size analyzer
# Format: physicochemical
# STATED CONDITIONS: slurry mixture redispersed after wet grinding; Lactose 225 g, SLS 225 g
QUANTITY: Average particle size (nm)
Enter your answer as a number in nm; do not include the unit.

Kindly note the recorded Average particle size for `O=C1CCc2cc(OCCCCc3nnnn3C3CCCCC3)ccc2N1` , which is 340

###

# TEST DETAILS: Particle size of cilostazol (lactose/SLS ratio) after redispersion of slurry or dried powder in distilled water, laser scattering particle size analyzer
# Type: physicochemical
# STATED CONDITIONS: drying powder redispersed; Lactose 360 g, SLS 90 g
QUANTITY: Particle size range D90 (nm)
I only need the number, in nm, no unit after it.

Sample `O=C1CCc2cc(OCCCCc3nnnn3C3CCCCC3)ccc2N1` ; Particle size range D90 observed: 270

###

# TEST DETAILS: Particle size of cilostazol (lactose/SLS ratio) after redispersion of slurry or dried powder in distilled water, laser scattering particle size analyzer
# Assay type: physicochemical
# STATED CONDITIONS: drying powder redispersed; Lactose 360 g, SLS 90 g
QUANTITY: Particle size range D10 (nm)
The response must be a number in nm with no trailing unit.

Reported Particle size range D10 ( `O=C1CCc2cc(OCCCCc3nnnn3C3CCCCC3)ccc2N1` ) = 150

###

# TEST DETAILS: Particle size of cilostazol (lactose/SLS ratio) after redispersion of slurry or dried powder in distilled water, laser scattering particle size analyzer
# Format: physicochemical
# STATED CONDITIONS: slurry mixture redispersed after wet grinding; Lactose 360 g, SLS 90 g
# Description: 0.45 g of cilostazol (Dongwoo Co., Ltd.) and 0.15 g of hydroxypropyl cellulose were added to 5.1 ml of the saturated aqueous solution of lactose. […] The slurry mixture thus obtained was high-pressure filtered (pressure: 640 mmHg) using a sound pressure and freeze dried for 1 day to obtain powders.
QUANTITY: Particle size range D90 (nm)
Answer format: numeric, nm implied, no suffix.

For record O=C1CCc2cc(OCCCCc3nnnn3C3CCCCC3)ccc2N1 [Cilostazol, cilostazol] the listed Particle size range D90 is 250

###

# TEST DETAILS: Particle size of cilostazol (lactose/SLS ratio) after redispersion of slurry or dried powder in distilled water, laser scattering particle size analyzer
# Type: physicochemical
# STATED CONDITIONS: slurry mixture redispersed after wet grinding; Lactose 90 g, SLS 360 g
QUANTITY: Particle size range D10 (nm)
Lab book: enter the figure in nm, no units written.

The recorded Particle size range D10 for `O=C1CCc2cc(OCCCCc3nnnn3C3CCCCC3)ccc2N1` is 230

###

# TEST DETAILS: Particle size of cilostazol (lactose/SLS ratio) after redispersion of slurry or dried powder in distilled water, laser scattering particle size analyzer
# Assay type: physicochemical
# STATED CONDITIONS: slurry mixture redispersed after wet grinding; Lactose 225 g, SLS 225 g
QUANTITY: Particle size range D10 (nm)
A number alone suffices; assume nm.

So, O=C1CCc2cc(OCCCCc3nnnn3C3CCCCC3)ccc2N1 [Cilostazol, cilostazol] ? Its Particle size range D10 was 230
